Every entry's value here was drawn from patent US20240116910A1.

# targetSystem: recombinant His-tag Wip1(2-420) protein (amino acids #2-420) (Homo sapiens (Human), UniProt O15297)
# Sequence (O15297 2-420): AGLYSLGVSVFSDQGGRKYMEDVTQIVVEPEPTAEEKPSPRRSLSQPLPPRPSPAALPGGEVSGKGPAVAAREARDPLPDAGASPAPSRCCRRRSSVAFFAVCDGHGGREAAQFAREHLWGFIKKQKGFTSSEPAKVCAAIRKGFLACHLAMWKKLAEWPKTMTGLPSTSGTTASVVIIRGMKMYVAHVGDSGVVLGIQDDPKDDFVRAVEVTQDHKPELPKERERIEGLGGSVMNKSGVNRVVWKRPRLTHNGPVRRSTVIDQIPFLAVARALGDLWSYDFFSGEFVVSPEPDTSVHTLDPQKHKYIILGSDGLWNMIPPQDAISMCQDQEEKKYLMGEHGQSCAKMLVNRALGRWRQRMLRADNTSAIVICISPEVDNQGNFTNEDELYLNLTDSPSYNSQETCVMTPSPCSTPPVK
# assay: Wip1(2-420) phosphatase enzyme FDP assay
# cond: fluorescein diphosphate (FDP) substrate, RT 2 hours, fluorescence Ex485/Em535; read-out: WIP1 (Truncated 2-420) FDP Assay: IC50
pIC50: −log10 of the molar value.
quantityName: pIC50

{"compound": "Cc1ncc(Cl)cc1NC(C)c1ccc(C(=O)N[C@@H](CC2CCCC2)C(=O)NC2CC2)s1 (stereo partly shown)", "quantityName": "pIC50", "reported": 7.89}

1: CC[C@@H](Nc1cc(Cl)cnc1C)c1ccc(C(=O)N[C@@H](CC2CCCC2)C(=O)NC2CC2)s1
2: Cc1ncc(Cl)cc1N[C@@H](C)c1ccc(C(=O)N[C@H](C(=O)NC23CC(C2)C3)C(C)(C)C)s1
3: C[C@@H](Nc1cc(Cl)cnc1C(N)=O)c1ccc(C(=O)N[C@@H](CC2CCCC2)C(=O)NC23CC(C2)C3)s1
4: CC(Nc1cc(Cl)cnc1C(F)(F)F)c1ccc(C(=O)N[C@@H](CC2CCCC2)C(=O)NC2CC2)s1 (stereo partly shown)
5: Cc1ncc(Cl)cc1N[C@@H](C)c1ccc(C(=O)N[C@@H](CC2CCCC2)C(=O)Nc2cccc(S(C)(=O)=O)c2)s1
Kindly order the items shown according to pIC50, from the highest value down. Response field: labels, in requested order. 5, 4, 3, 1, 2
(5: 8.30, 4: 7.72, 3: 7.12, 1: 6.91, 2: 5.66)

* * *

# targetSystem: recombinant His-tag Wip1 full length protein (amino acids #1-605) (Homo sapiens (Human))
# Sequence (O15297 whole entry): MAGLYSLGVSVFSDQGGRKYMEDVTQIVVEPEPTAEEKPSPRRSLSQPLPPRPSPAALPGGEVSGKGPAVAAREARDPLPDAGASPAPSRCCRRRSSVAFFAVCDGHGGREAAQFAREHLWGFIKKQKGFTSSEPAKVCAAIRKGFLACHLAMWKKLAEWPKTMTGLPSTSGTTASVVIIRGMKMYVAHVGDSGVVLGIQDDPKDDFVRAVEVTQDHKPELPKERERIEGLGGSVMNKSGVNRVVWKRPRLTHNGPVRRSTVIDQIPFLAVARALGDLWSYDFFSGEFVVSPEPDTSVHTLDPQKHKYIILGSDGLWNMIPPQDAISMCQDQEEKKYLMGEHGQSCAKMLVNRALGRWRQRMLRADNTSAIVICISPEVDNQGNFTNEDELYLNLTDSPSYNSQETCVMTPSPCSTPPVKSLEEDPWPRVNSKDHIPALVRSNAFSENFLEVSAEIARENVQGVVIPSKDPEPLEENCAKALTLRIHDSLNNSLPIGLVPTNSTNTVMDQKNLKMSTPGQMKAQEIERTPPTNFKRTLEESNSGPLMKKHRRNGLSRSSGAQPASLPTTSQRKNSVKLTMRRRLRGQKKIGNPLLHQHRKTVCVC
# assay: Wip1 full length phosphatase enzyme FDP assay
# cond: fluorescein diphosphate (FDP) substrate, RT 2 hours, fluorescence Ex485/Em535
quantityName: IC50 (nM)

{"compound": "Cc1ncc(Cl)cc1N[C@@H](C)c1ccc(C(=O)N[C@@H](CC2CCCC2)C(=O)NC(C)(C)C#N)s1 [Compound 65]", "quantityName": "IC50", "unitAnnotation": "nM", "reported": 10}
{"compound": "Cc1ncc(Cl)cc1N[C@@H](C)c1ccc(C(=O)N[C@@H](CC2CCCC2)C(=O)Nc2cnn(C3CCOCC3)c2)s1 [Compound 163]", "quantityName": "IC50", "unitAnnotation": "nM", "reported": 8}
{"compound": "CN(Cc1ncc(C(=O)N[C@@H](CC2CCCCC2)C(=O)Nc2ccncc2)s1)c1cncc(Cl)c1 [Compound 287]", "quantityName": "IC50", "unitAnnotation": "nM", "reported": 14}
{"compound": "Cc1ncc(Cl)cc1NCc1ncc(C(=O)N[C@@H](CC2CCCCC2)C(=O)Nc2ccncc2)s1 [Compound 300]", "quantityName": "IC50", "unitAnnotation": "nM", "reported": 15}
{"compound": "Cc1ncc(Cl)cc1N[C@@H](C)c1ccc(C(=O)N[C@@H](CC2CCCC2)C(=O)Nc2ccc3c(c2)CCCN3C)s1 [Compound 168]", "quantityName": "IC50", "unitAnnotation": "nM", "reported": 15}

I: CC[C@H](Nc1cc(Cl)cnc1C)c1ccc(C(=O)N[C@@H](CC2CCCC2)C(=O)NC23CC(C2)C3)s1 [Compound 68]
II: CC(Nc1ccc(F)c(Cl)c1)c1ccc(C(=O)N[C@@H](CC2CCCC2)C(=O)NC2CC2)s1 (stereo partly shown) [Compound 3]
Input pair: I , II . Output: entry with lower IC50. State your choice using its label. I
(I: 8 nM, II: 28 nM)
